Kindly state ED50 for each of the entries shown.
tested on: Mus musculus; test: Narcotic agonist activity in sc dosed albino mouse assessed as protection against acetylcholine-induced writhing administered 20 mins prior to acetylcholine challenge measured for 2 mins; type: functional; conditions: Mus musculus, sc; read-out: ED50
Numeric answer only, unit mg/kg assumed.

The compound listed as CN1CC[C@]2(C)c3cc(O)ccc3C[C@@H]1[C@@]2(C)CCC(C)(C)O has a reported ED50 of 3.8

response.value for CCCC(C)(O)CC[C@@H]1[C@H]2Cc3ccc(O)cc3[C@@]1(C)CCN2C.CS(=O)(=O)O (stereo partly specified) (field: ED50) = 2.6

ED50 in this record for C[C@H]1[C@@H]2Cc3ccc(O)cc3[C@]1(C)CCN2C : 0.54

Lab note: CC(C)(O)CC[C@]1(C)[C@H]2Cc3ccc(O)cc3[C@@]1(C)CCN2CC1CC1.Cl gave ED50 of 4.5

Entry CN1CC[C@]2(C)c3cc(O)ccc3C[C@@H]1[C@H]2CCC(C)(C)O , ED50 reported as 8.2

* * *

system: Mus musculus; experiment: Narcotic agonist activity in sc dosed albino mouse assessed as protection against acetylcholine-induced writhing administered 20 mins prior to acetylcholine challenge measured for 2 mins; type: functional; settings: Mus musculus, sc; read-out: ED50
REPORTED_PROPERTY: ED50 (mg/kg)
Numbers only here, please. The scale is mg/kg.

Note to self: ED50 recorded for CC(C)(O)CC[C@@H]1[C@H]2Cc3ccc(O)cc3[C@@]1(C)CCN2CC1CC1 was 16

Short answer for C[C@H]1[C@H]2Cc3ccc(O)cc3[C@]1(C)CCN2CC1CC1 : ED50 was 0.15

The reported ED50 of the compound CCC(C)(O)CC[C@@H]1[C@H]2Cc3ccc(O)cc3[C@@]1(C)CCN2C.CS(=O)(=O)O (stereo partly drawn) was 3.3

Entry CCCCC(C)(O)CC[C@@H]1[C@H]2Cc3ccc(O)cc3[C@@]1(C)CCN2CC1CC1.CS(=O)(=O)O (stereo partly drawn) — recorded ED50 = 6.5

The compound listed as CCCC(C)(O)CC[C@@H]1[C@H]2Cc3ccc(O)cc3[C@@]1(C)CCN2CC1CC1.CS(=O)(=O)O (stereo partly drawn) shows ED50 equal to 7.6

ED50 reading for CCCCC(C)(O)CC[C@@H]1[C@H]2Cc3ccc(O)cc3[C@@]1(C)CCN2C.CS(=O)(=O)O (stereo partly drawn) : 2.5

For this compound ( CCC(C)(O)CC[C@@H]1[C@H]2Cc3ccc(O)cc3[C@@]1(C)CCN2CC1CC1.CS(=O)(=O)O (stereo partly drawn) ), measured ED50 is 7.9
